assay: Brain and plasma exposure following IV and PO administration to mice; format: in vivo; settings: mice, 10 mg/kg PO, brain
Returns: string. Value is met if measured Brain Cmax @ 10 mpk is below 500 ng/g, and not met if it is greater than or equal to it.

A record lists `Cc1ncc2c(n1)CN(C(=O)Nc1nc(-c3ccc(F)s3)ccc1N)C2` . Is its Brain Cmax @ 10 mpk below 500 ng/g?
not met

And what about the molecule `Cc1ncc(-c2ccc(N)c(NC(=O)N3Cc4cn(CC(F)F)nc4C3)n2)s1` ?
met

And what about the molecule `Cc1cc2c(cn1)CN(C(=O)Nc1nc(-c3cccnc3)ccc1N)C2` ?
met

And what about the molecule `Cn1cc2c(n1)CN(C(=O)Nc1nc(-c3cccnc3)ccc1N)C2` ?
met

And what about the molecule `Cc1ncc(-c2ccc(N)c(NC(=O)N3Cc4cn(C)nc4C3)n2)s1` ?
met

And what about the molecule `CCc1ncc2c(n1)CN(C(=O)Nc1nc(-c3cccs3)ccc1N)C2` ?
not met

And what about the molecule `Nc1ccc(-c2ccc(F)cc2)nc1NC(=O)N1Cc2cn(C3COC3)nc2C1` ?
not met

And what about the molecule `Cc1ncc2c(n1)CN(C(=O)Nc1nc(-c3ccc(F)cc3)ccc1N)C2` ?
not met

And what about the molecule `CCc1ncc2c(n1)CN(C(=O)Nc1nc(-c3ccc(F)cc3)ccc1N)C2` ?
not met

And what about the molecule `CCc1cc2c(cn1)CN(C(=O)Nc1nc(-c3cccnc3)ccc1N)C2` ?
met

And what about the molecule `Cc1nc2c(n1C)CN(C(=O)Nc1nc(-c3ccc(F)cc3)ccc1N)C2` ?
met
